experiment: Rat brain penetrance pharmacokinetics, brain to plasma ratio after oral dosing; format: in vivo, male Sprague-Dawley rats; conditions: male, Sprague-Dawley, rat, in vivo, 3 mg/kg, time point 12.0, individual rats; read-out: B/P Ratio
MEASURED METRIC: Kp at 12 h

| GIVEN SMILES | MEASURED METRIC | NUMBER |
| --- | --- | --- |
| CCc1oc(-c2ccc(OC)cc2)nc1CCOc1ccc2c(c1)CC[C@H]2CC(=O)[O-].[Na+] | Kp at 12 h | 0.3 |

====

Biological target: human PPARγ (Homo sapiens, UniProt P37231)
Construct: expressed in transfected cells; host or cells: CV-1 cells (transient transfection)
Sequence (P37231 1-505): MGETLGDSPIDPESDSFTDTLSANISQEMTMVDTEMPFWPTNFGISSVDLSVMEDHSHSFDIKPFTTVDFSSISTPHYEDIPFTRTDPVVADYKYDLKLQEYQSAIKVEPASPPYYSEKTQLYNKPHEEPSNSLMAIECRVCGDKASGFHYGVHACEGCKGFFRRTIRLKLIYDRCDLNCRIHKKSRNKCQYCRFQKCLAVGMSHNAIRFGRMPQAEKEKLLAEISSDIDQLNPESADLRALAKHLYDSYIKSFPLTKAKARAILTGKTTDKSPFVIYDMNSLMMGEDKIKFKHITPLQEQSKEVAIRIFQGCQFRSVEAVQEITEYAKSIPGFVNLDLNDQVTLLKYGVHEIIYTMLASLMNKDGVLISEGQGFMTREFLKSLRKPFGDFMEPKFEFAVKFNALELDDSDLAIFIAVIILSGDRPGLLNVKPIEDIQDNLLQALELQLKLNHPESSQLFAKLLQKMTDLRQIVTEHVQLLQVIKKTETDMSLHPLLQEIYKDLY
Assay: Human PPAR activation in transient transfection study, transfected CV-1 cells (gamma subtype)
Assay type: cell-based
Settings: Lot A, Non GMP; read-out: EC50 PPARγ
Source text: The table summarize the results of studies performed in transfected CV-1 cells with three different lots of Compound of Example 11. […].
MEASURED METRIC: EC50

| GIVEN SMILES | RESULT |
| --- | --- |
| CCc1oc(-c2ccc(OC)cc2)nc1CCOc1ccc2c(c1)CC[C@H]2CC(=O)[O-].[Na+] | 220 nM |

====

Molecular target: human PPARα (Homo sapiens, UniProt Q07869)
Construct: expressed in transfected cells; host or cells: CV-1 cells (transient transfection)
Sequence (Q07869 whole entry): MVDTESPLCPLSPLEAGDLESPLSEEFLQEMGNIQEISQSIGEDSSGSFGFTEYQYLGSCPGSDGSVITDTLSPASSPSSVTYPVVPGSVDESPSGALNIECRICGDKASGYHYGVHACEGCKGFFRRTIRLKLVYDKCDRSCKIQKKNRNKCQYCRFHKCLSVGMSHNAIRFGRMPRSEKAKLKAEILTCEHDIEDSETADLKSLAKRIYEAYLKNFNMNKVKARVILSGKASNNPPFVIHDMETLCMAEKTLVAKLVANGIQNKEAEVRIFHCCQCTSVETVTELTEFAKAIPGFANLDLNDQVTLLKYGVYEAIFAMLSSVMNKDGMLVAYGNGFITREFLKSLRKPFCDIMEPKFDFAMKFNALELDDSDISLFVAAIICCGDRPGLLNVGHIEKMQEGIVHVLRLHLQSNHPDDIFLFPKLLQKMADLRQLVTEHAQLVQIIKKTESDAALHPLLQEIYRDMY
Experiment: Human PPAR activation in transient transfection study, transfected CV-1 cells (alpha subtype)
Type: cell-based
Details: Lot C, cGMP material; read-out: EC50 PPARα
Text: The table summarize the results of studies performed in transfected CV-1 cells with three different lots of Compound of Example 11. […].
pEC50: −log10 of the molar value.

| GIVEN SMILES | TARGET ENTITY | pEC50 |
| --- | --- | --- |
| CCc1oc(-c2ccc(OC)cc2)nc1CCOc1ccc2c(c1)CC[C@H]2CC(=O)[O-].[Na+] | human PPARα (Homo sapiens, UniProt Q07869) | 6.44 |

====

experiment: Rat brain penetrance pharmacokinetics, brain to plasma ratio after oral dosing; format: in vivo, male Sprague-Dawley rats; conditions: male, Sprague-Dawley, rat, in vivo, po, 3 mg/kg, 7 hours, 3 mg/kg oral
MEASURED METRIC: Kp at 7 h

| COMPOUND | NUMBER |
| --- | --- |
| CCc1oc(-c2ccc(OC)cc2)nc1CCOc1ccc2c(c1)CC[C@H]2CC(=O)[O-].[Na+] [Example 11] | 0.328 |
